The reported measurements were obtained from ChEMBL document CHEMBL4017480.

molecular target: Tyrosine-protein kinase ITK/TSK (Homo sapiens, UniProt Q08881)
Sequence (Q08881 whole entry): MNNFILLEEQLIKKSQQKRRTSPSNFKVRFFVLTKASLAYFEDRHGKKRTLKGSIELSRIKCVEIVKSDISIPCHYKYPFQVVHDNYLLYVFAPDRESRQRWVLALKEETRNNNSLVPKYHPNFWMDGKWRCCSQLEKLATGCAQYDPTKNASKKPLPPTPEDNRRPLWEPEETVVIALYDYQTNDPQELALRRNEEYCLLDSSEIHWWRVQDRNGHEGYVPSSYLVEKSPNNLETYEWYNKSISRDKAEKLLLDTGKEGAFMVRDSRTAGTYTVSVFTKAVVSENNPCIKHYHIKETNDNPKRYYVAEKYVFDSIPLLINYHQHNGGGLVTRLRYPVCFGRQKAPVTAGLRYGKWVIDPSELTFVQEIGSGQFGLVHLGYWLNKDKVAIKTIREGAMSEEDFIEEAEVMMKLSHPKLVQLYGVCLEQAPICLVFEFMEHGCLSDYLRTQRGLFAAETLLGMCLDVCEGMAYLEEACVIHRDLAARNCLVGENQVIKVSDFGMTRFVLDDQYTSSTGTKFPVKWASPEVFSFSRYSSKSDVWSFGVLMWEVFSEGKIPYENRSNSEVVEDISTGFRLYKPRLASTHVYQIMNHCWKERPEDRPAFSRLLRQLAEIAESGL
pIC50: −log10 of the molar value.
readout_type: pIC50

Form field pIC50, entry `C=CC(=O)Nc1cccc(C)c1Nc1ncc(OCc2c(F)c(OC)cc(OC)c2F)cn1` : < 5.00

###

biological target: Fibroblast growth factor receptor 1 (Homo sapiens, UniProt P11362); assay: Inhibition of recombinant human His-tagged FGFR1 cytoplasmic domain (308 to 731 residues) expressed in baculovirus expression system using tyr 04 as substrate measured within 60 mins by Z-LYTE assay
Sequence (P11362 whole entry, the tested form may be a part): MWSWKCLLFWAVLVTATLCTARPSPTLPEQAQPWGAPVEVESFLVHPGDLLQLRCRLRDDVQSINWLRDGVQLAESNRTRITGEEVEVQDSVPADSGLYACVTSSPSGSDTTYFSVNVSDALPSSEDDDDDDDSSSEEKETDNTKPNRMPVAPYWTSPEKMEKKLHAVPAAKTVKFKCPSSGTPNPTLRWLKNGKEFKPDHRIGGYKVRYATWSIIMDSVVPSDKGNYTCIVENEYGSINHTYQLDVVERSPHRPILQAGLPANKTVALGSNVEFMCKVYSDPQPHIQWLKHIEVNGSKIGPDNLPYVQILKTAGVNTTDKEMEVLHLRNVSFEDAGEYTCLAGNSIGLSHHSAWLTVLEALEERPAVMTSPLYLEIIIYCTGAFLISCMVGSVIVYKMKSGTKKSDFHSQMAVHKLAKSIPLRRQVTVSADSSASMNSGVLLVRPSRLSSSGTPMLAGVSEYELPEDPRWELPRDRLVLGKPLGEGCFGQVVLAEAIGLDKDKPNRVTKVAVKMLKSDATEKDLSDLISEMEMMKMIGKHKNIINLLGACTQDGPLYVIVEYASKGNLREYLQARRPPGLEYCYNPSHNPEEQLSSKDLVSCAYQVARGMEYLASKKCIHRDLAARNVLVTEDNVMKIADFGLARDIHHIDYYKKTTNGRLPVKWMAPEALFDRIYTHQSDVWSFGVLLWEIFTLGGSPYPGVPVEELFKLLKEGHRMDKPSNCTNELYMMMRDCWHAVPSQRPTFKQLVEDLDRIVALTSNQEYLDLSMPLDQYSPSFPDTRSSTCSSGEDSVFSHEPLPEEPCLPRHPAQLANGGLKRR
Catalogue of IC50 values

// solved cases for IC50 follow
[[record]]
compound = "C=CC(=O)Nc1cccc(C)c1Nc1ncc(OCc2cc(OC)cc(OC)c2)cn1"
target_entity = "Fibroblast growth factor receptor 1 (Homo sapiens, UniProt P11362)"
reported = "> 10 µM"

[[record]]
compound = "C=CC(=O)Nc1cccc(C)c1Nc1ncc(OC(C)c2c(Cl)c(OC)cc(OC)c2Cl)cn1 (centres undefined)"
target_entity = "Fibroblast growth factor receptor 1 (Homo sapiens, UniProt P11362)"
reported = "> 10 µM"


Form field IC50, entry `C=CC(=O)N[C@H]1CCOC[C@H]1Nc1ncc(OCc2c(F)c(OC)cc(OC)c2F)cn1` : > 10 µM

Form field IC50, entry `C=CC(=O)Nc1cccc(C)c1Nc1ncc(OCc2c(F)c(OC)cc(OC)c2F)cn1` : 8.6 µM

###

test: Intrinsic clearance in mouse liver microsomes at 1 uM measured after 60 mins in presence of NADPH by LC-MS/MS analysis; type: ADME, microsome; conditions: read-out: CLH
Catalogue of CLint scaled at 1 µM values

// solved cases for CLint scaled at 1 µM follow
[[record]]
compound = "C=CC(=O)Nc1cc(N2CCN(C(C)=O)CC2)cc(C)c1Nc1ncc(OCc2c(F)c(OC)cc(OC)c2F)cn1"
reported = "220 mL/min/kg"

[[record]]
compound = "C=CC(=O)N[C@H]1CCCC[C@H]1Nc1ncc(OCc2c(F)c(OC)cc(OC)c2F)cn1 (racemic)"
reported = "2030 mL/min/kg"


Now turn to the next compound.
Form field CLint scaled at 1 µM, entry `C=CC(=O)N[C@H]1COC[C@H]1Nc1ncc(OCc2c(F)c(OC)cc(OC)c2F)cn1` : 474 mL/min/kg
